Hi! I'm sharing some EC50 results obtained with Beta-1 adrenergic receptor (Homo sapiens).
Sequence (P08588 whole entry): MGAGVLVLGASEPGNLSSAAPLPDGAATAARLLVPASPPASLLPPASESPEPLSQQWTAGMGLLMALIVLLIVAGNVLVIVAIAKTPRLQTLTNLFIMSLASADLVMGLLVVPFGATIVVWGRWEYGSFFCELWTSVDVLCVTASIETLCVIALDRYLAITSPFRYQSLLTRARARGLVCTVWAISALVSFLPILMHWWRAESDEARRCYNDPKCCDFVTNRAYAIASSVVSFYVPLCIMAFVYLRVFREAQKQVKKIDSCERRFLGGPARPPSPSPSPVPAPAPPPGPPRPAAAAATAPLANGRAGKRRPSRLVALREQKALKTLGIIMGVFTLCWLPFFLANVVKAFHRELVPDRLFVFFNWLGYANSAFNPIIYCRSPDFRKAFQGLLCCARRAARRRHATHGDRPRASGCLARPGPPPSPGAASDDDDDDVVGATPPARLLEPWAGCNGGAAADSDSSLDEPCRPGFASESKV

COMPOUND: CN(CCOCCCNC[C@H](O)c1ccc(O)c2[nH]c(=O)sc12)CCc1ccccc1
EC50, nM: 200
--
COMPOUND: O=c1[nH]c2c(O)ccc([C@@H](O)CNCCCSCCCOCCc3ccccc3)c2s1
EC50, nM: 3.98
--
COMPOUND: O=c1[nH]c2c(O)ccc([C@@H](O)CNCCCOCCNCCc3cccc(Cl)c3)c2s1
EC50, nM: 39.8
--
COMPOUND: O=c1[nH]c2c(O)ccc([C@@H](O)CNCC[S+]([O-])CCCNCCc3cccc(Cl)c3)c2s1 (some centres not stated)
EC50, nM: 39.8
--
COMPOUND: O=c1[nH]c2c(O)ccc([C@@H](O)CNCCCOCCNCCc3cccc(Cl)c3Cl)c2s1
EC50, nM: 158
--
COMPOUND: O=c1[nH]c2c(O)ccc([C@@H](O)CNCCCSCCNCCc3ccccc3Cl)c2s1
EC50, nM: 39.8
--
COMPOUND: O=c1[nH]c2c(O)ccc([C@@H](O)CNCCCSCCNCCc3cccc(Cl)c3Cl)c2s1
EC50, nM: 63.1

The reported numbers originate from ChEMBL document CHEMBL1806408.
